Test system: HCT116
Experiment: efficacy (fitted maximal change in viability relative to DMSO control); higher = less cytotoxic (negative = loss of viability)
Conditions: 48 h
Recorded metric: efficacy (%)
Please respond with the number in % and leave the unit unwritten.

Some solved cases for reference:
Compound: CCN1CCN(CC1)CC(=O)NC2=CC=C(C3=C2C4=C(S3)C=CC=C4)C5=C6O\C(=C/C(=O)C6=CC=C5)N7CCOCC7
Unit abbrev: %
efficacy: -81.5
--
Compound: Clc1ccc(C(Cn2ccnc2)OCc2ccsc2Cl)c(Cl)c1 (stereo unspecified)
Unit abbrev: %
efficacy: -84.3
--
Compound: CC(C)[C@H]1C(=O)N[C@@H](CCCN=C(N)N)C(=O)NCC(=O)N[C@@H](CC(=O)O)C(=O)N[C@H](Cc2ccccc2)C(=O)N1C [Cilengitide]
Unit abbrev: %
efficacy: -11
--
Compound: O=[N+]([O-])c1cncn1CCN1CCOCC1
Unit abbrev: %
efficacy: -10.3
--
Compound: O=C(NCc1ccccc1)[C@H](Cc1ccccc1)NC(=O)[C@H]1O[C@@H]1C(=O)NCCc1ccc(O)cc1
Unit abbrev: %
efficacy: -24.8

In the following, a different compound is considered.
Reported efficacy (HCT116) for entry CO[C@H]1/C=C/O[C@@]2(C)Oc3c(C)c(O)c4c(c3C2=O)C2=NC3(CCN(CC(C)C)CC3)NC2=C(NC(=O)/C(C)=C/C=C/[C@H](C)[C@H](O)[C@@H](C)[C@@H](O)[C@@H](C)[C@H](OC(C)=O)[C@@H]1C)C4=O is -60

====

Tested on: HCT116;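 further: Luminescence-based viability readout, five doses per compound, normalized against on-plate DMSO and empty-well controls, followed by dose-response curve fitting for every drug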
Test: efficacy (fitted maximal change in viability relative to DMSO control); higher = less cytotoxic (negative = loss of viability)
Conditions: 48 h
Counter-ions that a name gives are not always drawn.
Recorded metric: efficacy (%)
Answer with a number only, understood to be in %.

Solved entries (count: 6):
Compound: CCOc1cc(/C=C2/C(=O)N(c3ccccc3)N=C2C)cc(Cl)c1OCC(=O)OC
Recorded metric: efficacy
Unit abbrev: %
Observed: -22.5
//
Compound: COc1cc2ncnc(Nc3cccc(Br)c3)c2cc1OC
Recorded metric: efficacy
Unit abbrev: %
Observed: -53
//
Compound: Cc1nc2c([nH]1)-c1ccccc1N(C(=O)c1ccc(NC(=O)c3ccccc3-c3ccccc3)cc1)CC2 [Conivaptan hydrochloride]
Recorded metric: efficacy
Unit abbrev: %
Observed: -45.3
//
Compound: CN(C)c1ccccc1CN1CCCN(Cc2ccccc2N(C)C)C1c1ccncc1
Recorded metric: efficacy
Unit abbrev: %
Observed: -88.6
//
Compound: O=[S+]([O-])(Nc1ccc(-c2cccnc2)c2cccnc12)c1cccc(C(F)(F)F)c1 [Compound 22d]
Recorded metric: efficacy
Unit abbrev: %
Observed: -73.3
//
Compound: N[S+](=O)([O-])c1cc2c(cc1Cl)NCN[S+]2(=O)[O-] [Hydrochlorothiazide]
Recorded metric: efficacy
Unit abbrev: %
Observed: 7.16

// returns efficacy for COC1=CC(=C2C(=O)N(COC/3=C/C(=O)N4\C=C/C=C(OCCN5CCCCC5)\C4=N3)[S+]([O-])(=O)C2=C1)C(C)C with HCT116; value = -84.2

Param item: O=C(O)C[C@H]1CC[C@H](c2ccc(-c3ccc(Nc4ccc(C(F)(F)F)nc4)cn3)cc2)CC1 ; param system: HCT116; output efficacy: -15.9

Hey, HCT116 data for C[C@H]1CCC/C=C/C2C[C@H](O)C[C@H]2[C@H](O)/C=C/C(=O)O1 (some centres undefined) : efficacy came out at -91.1
